target: Cdk2(N272C) (C177A) (Homo sapiens, UniProt P24941, C177A/N272C); construct: poly-histidine; made in house; host or cells: E. coli; assay: Kinetic thiol consumption assay with Cdk2 mutant N272C; assay type: binding; parameters: key: rate constant with Cdk2 ÷ rate constant with model thiol (fold); details: Cdk2 N272, additional mutation C177A
Measured Parameter: Rate enhancement, Cdk2 N272
Numbers only.

A selection of reference data follows.
C=CC(=O)N1CCC2(CC1)NC(=O)C1(CCCCC1)N2    0.3936
C=CC(=O)N1CCC(c2nnc3n2CCC3)CC1    3.031
O=C(CCl)NCCc1c[nH]c2ccccc12    0

Give measured Rate enhancement, Cdk2 N272 for every item shown.
1. CN(C#N)Cc1ccccc1
2. FC(F)(F)c1cc(Cl)ncc1Br
3. C=CC(=O)Nc1sc2c(c1C(=O)NC1CC1)CCC2
4. C=CS(=O)(=O)c1ccccc1

Key:
1. 0
2. 0.2037
3. 0.715
4. 0.3977
